# Assay overview: 5' untranslated region of α-synuclein, MLPCN primary screen (AID 1813);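 also: H4 neuroglioblastoma cells stably carrying SNCA 5'UTR luciferase fusion; 0% = DMSO wells and 100% = positive control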
# Conditions used: alpha-synuclein 5'UTR reporter, inhibitor activity; tested at 7.5 µM
Out of some 300,000 compounds screened, about 2,500 (0.83%) were called active. Rule as the data show it: active = inhibition above about 60%; inconclusive = no clear call, values can overlap the other calls; inactive = below that. The sample as a whole holds a higher share of actives than the screen did.
Returns: one label drawn from 1 (active), -1 (inactive)

[
  {
    "Compound": "Cc1ccsc1C(=O)OCC(=O)c1cc(C)n(CC2CCCO2)c1C (centres undefined)",
    "Label value": 1
  },
  {
    "Compound": "CCOc1ccc2c(c1)c(=O)c(S(=O)(=O)c1ccc(C)cc1)cn2CC",
    "Label value": -1
  },
  {
    "Compound": "CC(=O)Nc1nc2ccccc2n1Cc1ccc(C)cc1",
    "Label value": -1
  },
  {
    "Compound": "COc1cc2cc(C(=O)N/N=C/c3cccc(OC)c3OC)[nH]c2cc1OC",
    "Label value": -1
  },
  {
    "Compound": "COc1ccc(-c2cn(-c3ccc(OC)cc3)c(=S)[nH]2)cc1",
    "Label value": -1
  },
  {
    "Compound": "CCCCCOc1ccc(/C=C/C(=O)NCCc2nc3ccccc3[nH]2)cc1OC",
    "Label value": -1
  },
  {
    "Compound": "Cc1oc2c(F)c(F)c(F)c(F)c2c1S(=O)(=O)Nc1cccc(C(F)(F)F)c1",
    "Label value": -1
  },
  {
    "Compound": "CCO[C@H]1OC(C(=O)N2CCN(Cc3ccccc3)CC2)=C[C@@H](c2cn(C(C)=O)c3ccccc23)[C@@H]1CCCO",
    "Label value": -1
  },
  {
    "Compound": "O=S(=O)(c1ccc(-c2ccccc2)cc1)N1CCCC1",
    "Label value": -1
  },
  {
    "Compound": "CSc1nnc(NC(=O)c2nc(S(=O)(=O)Cc3ccc(C)cc3)ncc2Cl)s1",
    "Label value": -1
  }
]

Q: Field: outcome | Entry: CC(=O)Cc1nsc(NC(=O)c2ccc(Cl)cc2Cl)n1
Result: -1

Q: Field: outcome | Entry: C/C(=N\Nc1nc2ccccc2[nH]1)c1cccs1
Result: -1

Q: Field: outcome | Entry: CC[C@]1(O)CC2CN(CCc3c([nH]c4ccccc34)[C@@](C(=O)OC)(c3cc4c(cc3OC)N(C=O)[C@H]3[C@@](O)(C(=O)OC)[C@H](OC(C)=O)[C@]5(CC)C=CCN6CC[C@]43[C@@H]65)C2)C1 (some centres undefined)
Result: 1

Q: Field: outcome | Entry: O=C(CCN1C(=O)c2ccncc2C1=O)Nc1cc(F)ccc1F
Result: -1

Q: Field: outcome | Entry: O=c1oc2ccccc2cc1-c1cn(-c2ccccc2)c(=S)[nH]1
Result: 1
